# solubility at 24 h per record follows
- RUN DESCRIPTION: Assessment of solubility (McIlvaine buffers, 24 h shake, UPLC-UV)
- Type: physicochemical
- CONDITION SUMMARY: pH 2.2, aqueous buffer, kinetic from dmso stock
Reply with just the number (in µg/mL).

COc1c(C(=O)O)cnn1-c1cccc(-c2cccc(C)c2OCc2ccc3c(c2)CCN(CC(F)(F)F)C3)n1: 23
CCOc1c(C(=O)O)cnn1-c1cccc(-c2cccc(C)c2OCc2ccc3c(c2)CCN(C2CCOC2)C3)n1 (stereo not shown): 93
CCOc1c(C(=O)O)cnn1-c1cccc(-c2cccc(C)c2OCc2ccc3c(c2C)CCN(C[C@@H]2COCCO2)CC3)n1: 95

Continue with the molecule presented below.
INPUT: # get_value(readout='solubility at 24 h', item= CCOc1c(C(=O)O)cnn1-c1cccc(-c2cccc(C)c2OCc2ccc3c(c2)CCN(C2CCOCC2C)C3)n1 (stereo not shown) )
OUTPUT: 100
